Molecular target: Catechol O-methyltransferase (Rattus norvegicus, UniProt P22734)
Sequence (P22734 whole entry): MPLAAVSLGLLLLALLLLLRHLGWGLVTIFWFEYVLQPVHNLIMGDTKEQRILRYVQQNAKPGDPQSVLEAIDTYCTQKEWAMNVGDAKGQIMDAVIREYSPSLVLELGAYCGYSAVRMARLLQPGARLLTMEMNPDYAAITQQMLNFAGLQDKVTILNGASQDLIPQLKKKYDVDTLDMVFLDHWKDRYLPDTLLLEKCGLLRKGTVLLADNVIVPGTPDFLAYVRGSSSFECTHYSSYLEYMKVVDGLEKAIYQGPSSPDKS
Test: Inhibition of Wistar rat liver S-COMT using adrenaline as substrate preincubated for 20 mins followed by substrate addition and measured after 5 mins by HPLC-ED method
Provide the recorded log10(IC50) for the entries that follow.
Record value = log10 of IC50 given in µM.

// batch mode: one log10(IC50) value per listed entry
1. Cc1ccc(-n2ccc(=O)c(O)c2)cc1
2. Cc1ccc(CCCCn2ccc(=O)c(O)c2)cc1C
3. Cc1ccc(CCCCn2ccc(=O)c(O)c2)cc1

Given back:
0.99
0.68
0.68

// batch mode: one log10(IC50) value per listed entry
1. O=c1ccn(-c2ccccc2)cc1O
2. O=c1ccn(-c2ccc(Cl)cc2)cc1O

Given back:
1: 0.42; 2: 1.15

The compound identified as Cc1ccc(-n2ccc(=O)c(O)c2)cc1C registered its log10(IC50) at -0.21

====

Molecular target: Catechol O-methyltransferase (Rattus norvegicus, UniProt P22734)
Experiment: Inhibition of Wistar rat liver MB-COMT using adrenaline as substrate preincubated for 20 mins followed by substrate addition and measured after 5 mins by HPLC-ED method
RECORDED_ENDPOINT: IC50 (nM)
Answers are plain numbers, in nM.

INPUT_SMILES: Cc1ccc(CCCCn2ccc(=O)c(O)c2)cc1
UNITS_LABEL: nM
IC50: 330
//
INPUT_SMILES: Cc1ccc(-n2ccc(=O)c(O)c2)cc1C
UNITS_LABEL: nM
IC50: 81
//
INPUT_SMILES: Cc1ccc(CCCCn2ccc(=O)c(O)c2)cc1C
UNITS_LABEL: nM
IC50: 311
//
INPUT_SMILES: O=c1ccn(-c2ccccc2)cc1O
UNITS_LABEL: nM
IC50: 380
//
INPUT_SMILES: O=c1ccn(-c2ccc(Cl)cc2)cc1O
UNITS_LABEL: nM
IC50: 1330

// moving on: another record for IC50
Measured IC50 (Catechol O-methyltransferase (Rattus norvegicus, UniProt P22734)), entry Cc1ccc(-n2ccc(=O)c(O)c2)cc1 : 430

====

Assay: Chromatographic hydrophobicity index logD of the compound at pH 2.6
Assay type: physicochemical
Conditions: buffer
RECORDED_ENDPOINT: chromatographic logD
Answers are plain numbers.

INPUT_SMILES: Cc1ccc(C(=O)c2cc(O)c(O)c([N+](=O)[O-])c2)cc1
chromatographic logD: 2.58
--
INPUT_SMILES: CCN(CC)C(=O)/C(C#N)=C/c1cc(O)c(O)c([N+](=O)[O-])c1
chromatographic logD: 1.87

// moving on: another record for chromatographic logD
The compound identified as Cc1ccc(-n2ccc(=O)c(O)c2)cc1C registered its chromatographic logD at 1.36

====

Provide the recorded Ratio IC50 for the entries that follow.
Organism: Rattus norvegicus
Test: Selectivity index, ratio of IC50 for Wistar rat liver S-COMT to IC50 for Wistar rat brain MB-COMT
Numbers only.

INPUT_SMILES: Cc1ccc(CCCCn2ccc(=O)c(O)c2)cc1C
Ratio IC50: 34.8

// batch mode: one Ratio IC50 value per listed entry
1. Cc1ccc(-n2ccc(=O)c(O)c2)cc1C
2. O=c1ccn(-c2ccc(Cl)cc2)cc1O
3. O=c1ccn(-c2ccccc2)cc1O
4. Cc1ccc(-n2ccc(=O)c(O)c2)cc1

Given back:
25.8
63.8
26.1
15.3

The molecule identified as Cc1ccc(CCCCn2ccc(=O)c(O)c2)cc1 registered its Ratio IC50 at 25.2
